assay: Cytotoxicity against MDCK cells assessed as cell death after 2 days by MTT assay; assay type: toxicity, cell-based, Canis lupus familiaris; conditions: dog
Assay readout: CC50 at 48 h (µM)
Number in µM, nothing else.

C[C@@H]1O[C@@H](O[C@H]2[C@H](O[C@H]3CC[C@]4(C)[C@H]5CC=C6[C@@H]7CC(C)(C)CC[C@]7(C(=O)N(C)C)CC[C@@]6(C)[C@]5(C)CC[C@H]4C3(C)C)O[C@H](CO)[C@@H](O[C@@H]3O[C@@H](C)[C@H](O)[C@@H](O)[C@H]3O)[C@@H]2O)[C@H](O)[C@H](O)[C@H]1O
70
C[C@@H]1CC[C@@]2(OC1)O[C@H]1C[C@H]3[C@@H]4C[C@H](O)[C@H]5C[C@@H](O[C@@H]6O[C@H](CO)[C@@H](O[C@@H]7O[C@@H](C)[C@H](O)[C@@H](O)[C@H]7O)[C@H](O)[C@H]6O[C@@H]6O[C@@H](C)[C@H](O)[C@@H](O)[C@H]6O)CC[C@]5(C)[C@H]4CC[C@]3(C)[C@H]1[C@@H]2C
18.3
C[C@@H]1O[C@@H](O[C@H]2[C@H](O[C@H]3CC[C@]4(C)[C@H]5CC=C6[C@@H]7CC(C)(C)CC[C@]7(C(=O)OC7CCCC7)CC[C@@]6(C)[C@]5(C)CC[C@H]4C3(C)C)O[C@H](CO)[C@@H](O[C@@H]3O[C@@H](C)[C@H](O)[C@@H](O)[C@H]3O)[C@@H]2O)[C@H](O)[C@H](O)[C@H]1O
58.2
C[C@@H]1O[C@@H](O[C@H]2[C@H](O[C@H]3CC[C@]4(C)[C@H]5CC=C6[C@@H]7CC(C)(C)CC[C@]7(C(=O)O)CC[C@@]6(C)[C@]5(C)CC[C@H]4C3(C)C)O[C@H](CO)[C@@H](O[C@@H]3O[C@@H](C)[C@H](O)[C@@H](O)[C@H]3O)[C@@H]2O)[C@H](O)[C@H](O)[C@H]1O
18.7

For the compound `C[C@@H]1O[C@@H](O[C@H]2[C@H](O[C@H]3CC[C@]4(C)[C@H]5CC=C6[C@@H]7CC(C)(C)CC[C@]7(C=O)CC[C@@]6(C)[C@]5(C)CC[C@H]4C3(C)C)O[C@H](CO)[C@@H](O[C@@H]3O[C@@H](C)[C@H](O)[C@@H](O)[C@H]3O)[C@@H]2O)[C@H](O)[C@H](O)[C@H]1O` , what CC50 at 48 h is on record?
21.1

What does the record list as CC50 at 48 h for CC1(C)CC[C@]2(C(=O)O)CC[C@]3(C)C(=CC[C@@H]4[C@@]5(C)CC[C@H](O)C(C)(C)[C@@H]5CC[C@]43C)[C@@H]2C1 [OLEANOLIC_ACID] ?
23.1

Please look up its CC50 at 48 h: `CCN(CC)C(=O)[C@]12CCC(C)(C)C[C@H]1C1=CC[C@@H]3[C@@]4(C)CC[C@H](O[C@@H]5O[C@H](CO)[C@@H](O[C@@H]6O[C@@H](C)[C@H](O)[C@@H](O)[C@H]6O)[C@H](O)[C@H]5O[C@@H]5O[C@@H](C)[C@H](O)[C@@H](O)[C@H]5O)C(C)(C)[C@@H]4CC[C@@]3(C)[C@]1(C)CC2`
69
